target: cyclooxygenase (Ovis aries, UniProt P05979); construct: Ram seminal vesicular glands were trimmed of fat; from tissue; host or cells: ram seminal vesicular glands, microsomal pellet (105K xg); assay: RSVM-CO: Ram Seminal Vesicle Microsomal Cyclooxygenase assay; assay type: biochemical; conditions: 0.01 μg/ml
Sequence (P05979 25-600): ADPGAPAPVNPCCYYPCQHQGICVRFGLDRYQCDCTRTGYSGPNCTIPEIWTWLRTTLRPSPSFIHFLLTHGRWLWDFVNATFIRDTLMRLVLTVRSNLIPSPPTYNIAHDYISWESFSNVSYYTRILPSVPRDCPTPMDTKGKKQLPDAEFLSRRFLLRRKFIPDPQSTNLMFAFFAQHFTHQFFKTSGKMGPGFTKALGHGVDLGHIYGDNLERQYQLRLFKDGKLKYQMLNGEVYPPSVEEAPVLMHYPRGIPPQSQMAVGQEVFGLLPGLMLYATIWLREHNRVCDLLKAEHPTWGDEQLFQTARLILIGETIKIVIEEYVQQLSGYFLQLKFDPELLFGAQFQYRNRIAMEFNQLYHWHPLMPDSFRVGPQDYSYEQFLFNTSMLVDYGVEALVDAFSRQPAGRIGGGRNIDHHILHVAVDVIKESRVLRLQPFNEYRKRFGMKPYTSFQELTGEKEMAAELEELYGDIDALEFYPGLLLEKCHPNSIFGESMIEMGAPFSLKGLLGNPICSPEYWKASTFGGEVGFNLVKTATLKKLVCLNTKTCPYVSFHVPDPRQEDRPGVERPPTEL
readout-type: inhibition at 0.01 µg/mL (%)

- CC(=O)Oc1c(-c2ccccc2)sc(-c2ccccc2)c1-c1ccccc1: 0

(1) CC(=O)Oc1cc(-c2ccccc2)sc1-c1ccccc1
(2) CC(=O)Oc1cc(-c2cccs2)sc1-c1ccccc1
(3) COCOc1cc(-c2ccccc2)sc1-c1ccccc1
Task: Order these by inhibition at 0.01 µg/mL, descending, and give the full ranking. Note for the reader: the ranking is given by listing the labels in the order requested.
Result: 3, 1, 2
